Could you please report measured Giant foxtail plant response rating for the items listed next?
- System: giant foxtail
- assay_details: Test B pre/postemergence giant foxtail
- Format: in vivo, Setaria faberii
- experimental_conditions: Rate 62 g/ha, Postemergence; scale 0 to 10 (0 no effect, 10 complete control)
Write the number on its own, no unit after it.

Just so you know, measured Giant foxtail plant response rating for CCCCCn1c(=O)on(C(=O)N(c2ccc(F)cc2)C(C)C)c1=O came out at 0

Just so you know, measured Giant foxtail plant response rating for CCOCn1c(=O)on(C(=O)N(c2ccc(F)cc2)C(C)C)c1=O came out at 0

Just so you know, measured Giant foxtail plant response rating for C=CC(CC)n1c(=O)on(C(=O)N(c2ccccc2)C(C)C)c1=O (centres unmarked) came out at 7

Just so you know, measured Giant foxtail plant response rating for CC(C)N(C(=O)n1oc(=O)n(C(CF)CF)c1=O)c1ccc(Cl)cc1 came out at 1

Just so you know, measured Giant foxtail plant response rating for CC(C)C(=O)Cn1c(=O)on(C(=O)N(c2ccccc2)C(C)C)c1=O came out at 5

Origin of measurements: patent US6737383B1
